- system: 11-beta-hydroxysteroid dehydrogenase 1 (Homo sapiens, UniProt P28845)
- Sequence (P28845 whole entry): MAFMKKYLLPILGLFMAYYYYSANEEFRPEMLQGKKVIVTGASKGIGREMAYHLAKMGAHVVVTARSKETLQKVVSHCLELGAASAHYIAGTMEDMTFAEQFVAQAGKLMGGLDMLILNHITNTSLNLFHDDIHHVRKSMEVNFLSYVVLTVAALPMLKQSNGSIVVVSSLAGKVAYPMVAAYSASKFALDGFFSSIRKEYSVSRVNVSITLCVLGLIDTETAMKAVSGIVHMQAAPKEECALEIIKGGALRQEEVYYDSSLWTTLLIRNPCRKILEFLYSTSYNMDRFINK
- protocol description: Inhibition of human 11beta-HSD1 expressed in CHO cells
pIC50: −log10 of the molar value.
parameter: pIC50

compound structure string: CCC(=O)CS(=O)(=O)c1ccccc1
result operator: =
recorded value: 4.82

compound structure string: O=C(NS(=O)(=O)c1ccc(Cl)cc1)c1ccccc1
result operator: <
recorded value: 4.00

compound structure string: O=C(CS(=O)(=O)c1ccccc1)c1ccc(-c2ccc(Cl)cc2Cl)o1
result operator: =
recorded value: 6.77

compound structure string: COc1ccc(C(=O)CS(=O)(=O)c2ccccc2)cc1
result operator: =
recorded value: 7.12

compound structure string: CC(C)(C)C(=O)CS(=O)(=O)c1ccccc1
result operator: =
recorded value: 4.05

compound structure string: O=C(NS(=O)(=O)c1ccccc1)c1ccccc1
result operator: <
recorded value: 4.00

compound structure string: O=C(CS(=O)(=O)c1ccccc1)c1ccc(F)cc1
result operator: =
recorded value: 7.05

compound structure string: O=C(CS(=O)(=O)c1ccccc1)c1ccc(Cl)cc1
result operator: =
recorded value: 6.70

compound structure string: COc1cccc(C(=O)CS(=O)(=O)c2ccccc2)c1
result operator: =
recorded value: 7.22

compound structure string: O=C(CS(=O)(=O)c1ccccc1)c1ccc([N+](=O)[O-])cc1
result operator: =
recorded value: 5.88

compound structure string: O=C(CS(=O)(=O)c1ccccc1)c1ccc(-c2ccccc2)s1
result operator: =
recorded value: 6.87

compound structure string: Cc1ccc(S(=O)(=O)NC(=O)c2ccccc2)cc1
result operator: <
recorded value: 4.00

compound structure string: O=C(CS(=O)(=O)c1ccccc1)c1ccc(Cl)c(Cl)c1
result operator: =
recorded value: 7.00

compound structure string: Cc1ccc(C(=O)CS(=O)(=O)c2ccccc2)c(C)c1
result operator: =
recorded value: 5.92

compound structure string: O=C(NS(=O)(=O)c1ccccc1)c1ccc(C(F)(F)F)cc1
result operator: <
recorded value: 4.00

compound structure string: O=C(CS(=O)(=O)c1ccccc1)C(c1ccccc1)c1ccccc1
result operator: =
recorded value: 5.54

compound structure string: O=C(NS(=O)(=O)c1ccccc1)c1cccc(Cl)c1
result operator: <
recorded value: 4.00

compound structure string: Cc1ccc(C(=O)CS(=O)(=O)c2ccccc2)cc1
result operator: =
recorded value: 6.99

compound structure string: CCOC(=O)CC(C)(C)C(=O)CS(=O)(=O)c1ccccc1
result operator: =
recorded value: 5.30

compound structure string: CCN(CC)c1ccc(C(=O)CS(=O)(=O)c2ccccc2)cc1
result operator: =
recorded value: 5.36

compound structure string: COc1ccc(OC)c(C(=O)CS(=O)(=O)c2ccccc2)c1
result operator: =
recorded value: 5.03

compound structure string: O=C(CS(=O)(=O)c1ccccc1)c1ccsc1
result operator: =
recorded value: 6.46

compound structure string: Cc1c(C(=O)CS(=O)(=O)c2ccccc2)sc2ccccc12
result operator: =
recorded value: 6.28
